tested on: PXR homodimer (NR concentration 270 nM); experiment: PBM binding z-score (relative to random genomic background probes); higher = stronger binding; sequences stand for … in GC…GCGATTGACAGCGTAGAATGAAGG
measurement-kind: PBM binding z-score

>>> df
                        sequence_input     measurement_kind  test_result
 0  TCATATAGGTAAATGCTAGGTGAAAATCCGATCT  PBM binding z-score        0.518
 1  CAGCCTAGGTCAGGCCCAGTATAGGAGGAACGTT  PBM binding z-score       -0.609
 2  CGTCCAAGGTCATAGGAGGTCAGTGCAGACAGAT  PBM binding z-score         4.62
 3  CCTAGTTGGTCAAGGTCATACACGCTATAGGTAC  PBM binding z-score         3.04
 4  CCTATTAGTTGACCTTAAGGGCAACCGAAGCTCG  PBM binding z-score         1.93
 5  GCAAACAGGTGAAACGCAGGTAACTCAGGGTGGC  PBM binding z-score       -0.519
 6  TCGAGTAGGTTAGTCGGGGCATTCTGCCAACATA  PBM binding z-score       -0.171
 7  ATACCAAGGTGATCGTGAGGTCGCTGATACTAAC  PBM binding z-score        0.225
 8  TCATATAGGTAATACAGTTGAAAGTCGGCATCTA  PBM binding z-score         0.75
 9  AGTCACAGTTCACTAGGTAACGTAAGATTCAGCT  PBM binding z-score        0.619
10  CAAACTAGGTCACAGGTCAAAGTCGAGCCAACCA  PBM binding z-score        0.711
11  CCTAGCAGGCCAGGGTCATTCAAGCATTTCGCTT  PBM binding z-score      -0.0887

###

test system: PXR:RXRa (NR concentration 270 nM, RXRa partner concentration 90 nM); test: PBM binding z-score (relative to random genomic background probes); higher = stronger binding; sequences stand for … in GC…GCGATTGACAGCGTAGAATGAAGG
Assign Fulfilled whenever PBM binding z-score does not fall below 2; assign Not fulfilled whenever it does.

In [3]: df
Out[3]:
                       sequence_input                               test_system          group
0  TGTCAAGGTTCAAAGGTAACGTAAGTATCCACAC  PXR:RXRa (NR concentration 270 nM, RXRa partner concentration 90 nM)      Fulfilled
1  TAGCCTAGGTCATTCGGCCAGTATAGTACGCATC  PXR:RXRa (NR concentration 270 nM, RXRa partner concentration 90 nM)  Not fulfilled
2  GTATATAGGTAATACAAGGTGAAAGTCCGATTGT  PXR:RXRa (NR concentration 270 nM, RXRa partner concentration 90 nM)  Not fulfilled
3  ATATGTAGGTTACATCCGGGTCATTCAAGCTATG  PXR:RXRa (NR concentration 270 nM, RXRa partner concentration 90 nM)      Fulfilled
4  CATAAAGGGTCAGCTAGGCCAGAGTAGGGACGGC  PXR:RXRa (NR concentration 270 nM, RXRa partner concentration 90 nM)      Fulfilled
